Test system: isolate B006
protocol-description: Disc diffusion antimicrobial susceptibility testing; note: key: R—resistant; S—susceptible
Assay type: cell-based, Staphylococcus pseudolugdunensis

[
  {
    "compound": "Cc1nnc(SCC2=C(C(=O)O)N3C(=O)[C@@H](NC(=O)Cn4cnnn4)[C@H]3SC2)s1 [Cefazolin]",
    "Antimicrobial susceptibility": "R"
  },
  {
    "compound": "CC[C@H]1OC(=O)[C@H](C)[C@@H](O[C@H]2C[C@@](C)(OC)[C@@H](O)[C@H](C)O2)[C@H](C)[C@@H](O[C@@H]2O[C@H](C)C[C@H](N(C)C)[C@H]2O)[C@](C)(O)C[C@@H](C)C(=O)[C@H](C)[C@@H](O)[C@]1(C)O [Erythromycin]",
    "Antimicrobial susceptibility": "R"
  },
  {
    "compound": "CO[C@H]1/C=C/O[C@@]2(C)Oc3c(C)c(O)c4c(O)c(c(/C=N/N5CCN(C)CC5)c(O)c4c3C2=O)NC(=O)/C(C)=C\\C=C\\[C@H](C)[C@H](O)[C@@H](C)[C@@H](O)[C@@H](C)[C@H](OC(C)=O)[C@@H]1C [Rifampin]",
    "Antimicrobial susceptibility": "S"
  }
]
